Value source: PubChem BioAssay AID1027

Below, each entry is listed with its recorded activation factor.
- Target or system: Luciferin 4-monooxygenase (Photinus pyralis)
- Protocol notes: FLuc activators, initial screening, artefact control for FLuc-dependent activation tests, biochemical, ATPlite luminescence (AID 1027)
- Test context: ATPlite luciferase biochemical, 10 min, at 10 µM, hits give high values, 0 = ATP-free wells, 1 = DMSO control
The whole screen tested about 200,000 compounds, of which fewer than 10 were called active. A selection follows.
Just the number.

Use the examples below as a reference point.
INSERT INTO results (molecule, target_or_system, recorded_number) VALUES
  ('COc1ccc2oc(=O)c(C(=O)NCc3ccccn3)cc2c1', 'Luciferin 4-monooxygenase (Photinus pyralis)', 0.9),
  ('COc1cc(C(=O)N2C(=O)c3cccc(N)c3C2=O)cc(OC)c1OC', 'Luciferin 4-monooxygenase (Photinus pyralis)', 1),
  ('CCOC(=O)N1CCN(CCC(=O)Nc2cc(OC)ccc2OC)CC1', 'Luciferin 4-monooxygenase (Photinus pyralis)', 1),
  ('CC[n+]1c(C)n(-c2ccccc2)c2ccc(NC(C)=O)cc21', 'Luciferin 4-monooxygenase (Photinus pyralis)', 1),
  ('Cc1c(NC(=O)CCC2CCCCC2)cc(C(=O)N2CCOCC2)cc1[N+](=O)[O-]', 'Luciferin 4-monooxygenase (Photinus pyralis)', 1.1);

Lab note: next molecule to report on.
GET /values?readout=activation factor&item= CC1=C(C(=O)Nc2cc(C)ccn2)C(c2cnn(C)c2)C2=C(CC(c3ccccc3)CC2=O)N1 (stereo unspecified)
1.1
